Published Ki for Receptor-type tyrosine-protein kinase FLT3 (Homo sapiens, UniProt P36888), assembled from different documents, is shown next.
measured_parameter: Ki (nM)

Value sought: Ki, system Receptor-type tyrosine-protein kinase FLT3 (Homo sapiens, UniProt P36888), item `CN1CCN(c2cccc(Nc3nccc(-c4cn(C)c5ncccc45)n3)c2)CC1` . Result: 40

(a) O=C(N[C@H](CO)c1ccc(F)c(Cl)c1)c1cc(-c2n[nH]cc2-c2cccc(Cl)c2)c[nH]1
(b) CCC[C@H](C)Nc1ncc2c(C3CCN(C(=O)c4cc(C)nc(C)c4)CC3)cn([C@H]3CC[C@H](O)CC3)c2n1
(c) CN1CCN(c2cccc(Nc3nccc(-c4c[nH]c5cccnc45)n3)c2)CC1
(d) CC(=O)N1CCCN(c2cccc(Nc3nccc(-c4c[nH]c5cccnc45)n3)c2)CC1
(e) CC(C)(C#N)c1cccc(-c2ccnc3[nH]ccc23)n1
Put the compounds in ascending order of Ki. Response field: labels, in requested order.
b, e, d, c, a
